Value source: PubChem BioAssay (NCI)

# System: K-562 leukemia
# MEASUREMENT_DESCRIPTION: NCI tumour cell line growth inhibition, 48 h
Recorded measurements of TGI, one per entry

In the examples that follow, each entry is paired with its recorded TGI.
CN(C)c1nc(=Nc2ccc3ccccc3c2)ss1; > 100 µM
N/C(=N\N=C\c1ccc(-c2ccccc2)cc1)N[N+](=O)[O-]; > 100 µM

Form: compound = N#CC(C#N)=Cc1ccc2c(c1)OC(Cl)O2 (stereo unspecified) ; TGI = > 100 µM

Form: compound = COC(=O)C1C(OC(=O)c2ccccc2)CC2CCC1N2C(N)=O (stereo unspecified) ; TGI = > 100 µM

Form: compound = "CCOc1ccc2nc(NC(=O)c3c/c(=N\NC(=O)C[N+](C)(C)C)c4ccc(O)cc4o3)sc2c1" ; TGI = 6.08 µM

Form: compound = "CC(C)(C)c1n[nH]c(=S)n(/N=C/c2ccc(F)c(Oc3ccccc3)c2)c1=O" ; TGI = > 100 µM

Form: compound = "Cc1ccccc1N=Nc1ccc(N=Nc2c(O)ccc3ccccc23)c(C)c1" ; TGI = > 100 µM

---

# System: PC-3 prostate
# MEASUREMENT_DESCRIPTION: NCI tumour cell line growth inhibition, 48 h
Recorded measurements of TGI, one per entry

In the examples that follow, each entry is paired with its recorded TGI.
CCCN(C(=O)c1c(Cl)nnc(Cl)c1C(=O)c1cc(Cl)nnc1Cl)c1cc(Cl)nnc1Cl; 22.2 µM
CC1(C)CS(=O)(=O)CC(C)(C)C(=N/N)/C1=N\N; > 100 µM
COc1c2c(cc3oc(C)cc(=O)c13)OC(=N)C(C(N)=O)C2CC(=O)c1ccc(N)cc1 (stereo unspecified); > 100 µM
C[C@@H]1CC[C@H]2C(COCCOCC3=C(C(F)(F)F)O[C@@H]4O[C@@]5(C)CC[C@H]6[C@H](C)CC[C@@H]3[C@@]46OO5)=C(C(F)(F)F)O[C@@H]3O[C@@]4(C)CC[C@@H]1[C@]32OO4; > 100 µM

Form: compound = "COc1ccc2[nH]c3c(c2c1)CCn1c-3nc2ccccc2c1=O" ; TGI = > 25 µM

Form: compound = "COc1ccc([C@@H]2ON(C)[C@H]3CN(C)C(=O)[C@@H]23)cc1" ; TGI = > 100 µM

Form: compound = CC12CCC(C(=O)OC1=O)C(C)(C)O2 (stereo unspecified) ; TGI = > 100 µM

Form: compound = "Clc1cc(Cl)c(OCC#CI)cc1Cl" ; TGI = 27.9 µM

Form: compound = "O=C(CN1CCNCCN(CC(=O)N2CCCCC2)CCNCC1)N1CCCCC1" ; TGI = > 100 µM

Form: compound = "C1=NCCNCCN=Cc2ccc(cc2)OCc2cccc(n2)COc2ccc1cc2" ; TGI = > 100 µM

---

# Tested on: CCRF-CEM leukemia
# MEASUREMENT_DESCRIPTION: NCI tumour cell line growth inhibition, 48 h
ASSAY_ENDPOINT: TGI

c1ccc2c(c1)c(NCCCCN1CCCCC1)cc1c3ccccc3c(NCCCCN3CCCCC3)cc21; > 100 µM
CN(C)CCNC(=O)c1cccc2c(NCC(=O)O)c3ccccc3nc12; > 100 µM
Cc1ccc(C2=NOC3=c4ccccc4=CSC3=C2c2ccc([N+](=O)[O-])cc2)cc1; > 100 µM
CC(=O)Nc1ccccc1SCCSSCCSc1ccccc1NC(C)=O; 70.4 µM

Form: compound = "Cn1c(/C=C(\O)c2ccc(Cl)cc2)nc2ccccc21" ; TGI = > 100 µM

Form: compound = "CCOC(=O)c1sc2c(c1OC(=O)c1cccs1)c(=O)n(-c1ccccc1)c(=S)n2-c1ccccc1" ; TGI = 36 µM

Form: compound = "COc1cc(C(=O)C/C(CCC(=O)Nc2ccccc2[N+](=O)[O-])=N\NC(=O)CC#N)ccc1O" ; TGI = > 100 µM

Form: compound = "COc1cccc(/C=C2/Sc3scc(-c4ccccc4)[n+]3C2=O)c1O" ; TGI = 30.4 µM
